Reported IC50 values for a set of compounds
- Tested on: EZH2 Mutant Y641N (Homo sapiens (Human), UniProt Q15910, Y641N)
- Sequence (Q15910 whole entry Y641N, looked up): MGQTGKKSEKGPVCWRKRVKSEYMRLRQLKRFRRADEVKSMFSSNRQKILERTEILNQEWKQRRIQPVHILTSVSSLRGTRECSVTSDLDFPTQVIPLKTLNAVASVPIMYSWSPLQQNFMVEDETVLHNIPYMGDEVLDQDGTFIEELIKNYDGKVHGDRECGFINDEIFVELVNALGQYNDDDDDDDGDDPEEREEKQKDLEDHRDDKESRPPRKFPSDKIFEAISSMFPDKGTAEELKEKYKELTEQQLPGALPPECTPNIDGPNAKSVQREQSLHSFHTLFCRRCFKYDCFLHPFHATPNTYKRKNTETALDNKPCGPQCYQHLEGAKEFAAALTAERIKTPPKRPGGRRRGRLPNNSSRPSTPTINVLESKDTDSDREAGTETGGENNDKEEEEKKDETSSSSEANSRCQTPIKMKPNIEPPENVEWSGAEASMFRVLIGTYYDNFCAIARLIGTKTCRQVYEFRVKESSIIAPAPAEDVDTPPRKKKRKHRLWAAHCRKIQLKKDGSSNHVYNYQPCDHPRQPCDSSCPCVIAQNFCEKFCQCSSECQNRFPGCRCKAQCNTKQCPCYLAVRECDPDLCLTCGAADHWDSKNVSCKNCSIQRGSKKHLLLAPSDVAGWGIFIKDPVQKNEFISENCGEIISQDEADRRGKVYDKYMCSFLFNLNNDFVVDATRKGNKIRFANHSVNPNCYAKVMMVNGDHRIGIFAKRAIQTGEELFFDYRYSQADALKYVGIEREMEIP
- Sequence (O75530 whole entry partner, looked up): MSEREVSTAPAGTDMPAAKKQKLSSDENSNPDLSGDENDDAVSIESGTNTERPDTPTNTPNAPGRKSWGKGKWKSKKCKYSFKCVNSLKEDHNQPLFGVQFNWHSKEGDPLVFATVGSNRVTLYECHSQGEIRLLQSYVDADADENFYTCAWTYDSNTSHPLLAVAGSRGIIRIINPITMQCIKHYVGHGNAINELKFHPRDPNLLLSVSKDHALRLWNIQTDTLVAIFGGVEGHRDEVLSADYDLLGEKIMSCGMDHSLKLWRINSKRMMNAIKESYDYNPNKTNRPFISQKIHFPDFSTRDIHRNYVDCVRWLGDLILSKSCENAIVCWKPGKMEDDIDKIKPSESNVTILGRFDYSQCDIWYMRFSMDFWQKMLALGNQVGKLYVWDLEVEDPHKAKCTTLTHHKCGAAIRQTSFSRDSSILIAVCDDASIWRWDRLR
- Sequence (Q15022 whole entry partner, looked up): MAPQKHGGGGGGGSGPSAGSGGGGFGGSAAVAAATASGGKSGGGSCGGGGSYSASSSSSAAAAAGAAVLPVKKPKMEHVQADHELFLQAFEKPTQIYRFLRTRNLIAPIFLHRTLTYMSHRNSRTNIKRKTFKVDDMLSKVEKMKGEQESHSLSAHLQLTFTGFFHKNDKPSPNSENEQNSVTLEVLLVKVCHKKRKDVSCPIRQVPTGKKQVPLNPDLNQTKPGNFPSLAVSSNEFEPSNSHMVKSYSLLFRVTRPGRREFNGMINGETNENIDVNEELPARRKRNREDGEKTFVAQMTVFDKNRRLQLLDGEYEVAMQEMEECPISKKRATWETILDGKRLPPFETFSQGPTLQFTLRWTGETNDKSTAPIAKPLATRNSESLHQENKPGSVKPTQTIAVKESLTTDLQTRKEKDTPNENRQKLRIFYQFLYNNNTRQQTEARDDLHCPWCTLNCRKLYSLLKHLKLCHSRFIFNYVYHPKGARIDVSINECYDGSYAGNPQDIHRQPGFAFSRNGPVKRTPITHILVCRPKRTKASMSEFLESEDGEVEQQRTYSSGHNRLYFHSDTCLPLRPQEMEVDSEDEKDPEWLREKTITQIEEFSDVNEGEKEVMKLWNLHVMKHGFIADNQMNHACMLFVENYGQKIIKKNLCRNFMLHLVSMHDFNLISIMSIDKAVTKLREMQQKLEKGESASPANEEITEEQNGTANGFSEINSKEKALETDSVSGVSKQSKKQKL
- Sequence (Q09028 whole entry partner, looked up): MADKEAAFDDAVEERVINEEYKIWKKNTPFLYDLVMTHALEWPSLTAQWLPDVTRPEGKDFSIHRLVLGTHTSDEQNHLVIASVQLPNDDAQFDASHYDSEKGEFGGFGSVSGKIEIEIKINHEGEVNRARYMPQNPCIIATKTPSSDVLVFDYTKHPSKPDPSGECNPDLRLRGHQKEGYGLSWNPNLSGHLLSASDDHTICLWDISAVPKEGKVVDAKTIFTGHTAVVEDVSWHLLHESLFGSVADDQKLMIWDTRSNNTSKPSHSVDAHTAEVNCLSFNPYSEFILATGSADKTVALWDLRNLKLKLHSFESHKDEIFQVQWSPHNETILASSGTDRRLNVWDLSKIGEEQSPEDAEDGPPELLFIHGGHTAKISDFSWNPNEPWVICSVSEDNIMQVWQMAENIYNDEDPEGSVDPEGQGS
- Assay procedure: EZH2 Mutant Y641N nucleosome assay
- Format: biochemical
- Measurement conditions: EZH2 Mutant Y641N Nucleosome assay IC50 (μM), PRC2 4-protein complex 6 nM, 1.5 μM SAM, HeLa oligonucleosomes
Measured metric: IC50 (µM)

- Compound: "COC(c1cc(Cl)c2c(c1Cl)C(=O)N(Cc1c(C)cc(C)[nH]c1=O)CC2)C1CCN(C(=O)CO)CC1 (single isomer, unassigned) [Example 35]"
  Endpoint result: 0.002
- Compound: "COc1cc(C)[nH]c(=O)c1CN1CCc2c(Cl)cc(C(OC)C3CCOC3)c(Cl)c2C1=O (single isomer, unassigned) [Example 124]"
  Endpoint result: 0.892
- Compound: "CCC(CO)c1cc(Cl)c2c(c1Cl)C(=O)N(Cc1c(C)cc(C)[nH]c1=O)CC2 (racemic) [Example 20]"
  Endpoint result: 0.053
- Compound: "Cc1cc(C)c(CN2CCc3c(Cl)cc(C(CO)C4CCOCC4)c(Cl)c3C2=O)c(=O)[nH]1 (single isomer, unassigned) [Example 38]"
  Endpoint result: 0.74
- Compound: "COC(c1cc(Cl)c2c(c1Cl)C(=O)N(Cc1c(C)cc(C)[nH]c1=O)CC2)C1CCN(C)CC1 (single isomer, unassigned) [Example 137]"
  Endpoint result: 1.17
